These entries and their values trace back to paper PMC5389614.

Target: T1, AgeI Q86A (UniProt Q9KHV6 1-278, Q86A)
T1 sequence: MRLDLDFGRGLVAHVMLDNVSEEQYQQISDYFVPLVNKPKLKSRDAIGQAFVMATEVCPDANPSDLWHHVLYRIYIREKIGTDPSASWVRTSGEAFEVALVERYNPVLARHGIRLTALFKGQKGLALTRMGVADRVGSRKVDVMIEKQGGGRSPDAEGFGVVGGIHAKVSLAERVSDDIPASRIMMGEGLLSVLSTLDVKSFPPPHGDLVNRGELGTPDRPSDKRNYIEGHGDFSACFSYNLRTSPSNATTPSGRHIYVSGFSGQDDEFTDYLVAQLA
Assay: EMSA
Assay Readout: Kd (nM)
Please state the figure in nM; there is no need to write the unit.

GET /value?item= SP (specific) (dsDNA) DNA 1: AGACCCACGCTCACCGGTTCCAGATTTATC DNA 2: GATAAATCTGGAACCGGTGAGCGTGGGTCT &field=Kd returns 4.6
